Assignment: determine reported TGI for the given compounds.
test system: IGROV1 ovarian; assay: NCI tumour cell line growth inhibition, 48 h

# annotated cases, reported TGI shown
COMPOUND	TGI
CC(C)c1ccc2[nH]c(O)c(C3=Nc4ccccc4C3=O)c2c1	65.8 µM
Cc1ccc(N2C(=O)/C(=C/c3ccc(N(CCC#N)CCC#N)cc3C)N=C2c2cc([N+](=O)[O-])ccc2Cl)cc1	> 100 µM
ClCc1ccc2ccc3ccc(CCl)nc3c2n1	3.48 µM
CC(C)c1nc2c(Cl)c3ncccc3cc2[nH]c1=O	> 100 µM
O=c1n(CCCCn2c(=O)n(CC3CS3)c3ccccc32)c2ccccc2n1CC1CS1 (configuration not stated)	32 µM

For each of the compounds below, note its TGI.
1. O=C(CN1C(=O)c2ccccc2C1=O)C(O)CN1C(=O)c2ccccc2C1=O (configuration not stated)
2. C[CH2][Sn]([CH2]C)([O]C(=O)c1cccc(F)c1)[O][Sn]([CH2]C)([CH2]C)[O]C(=O)c1cccc(F)c1
3. N/C(COc1ccc(Cl)cc1)=N\NC(=O)c1ccncc1
4. Cc1ccc(C2=C(c3ccccc3)C(Br)(c3ccccc3)C(c3ccccc3)=C2c2ccc(C)cc2)cc1
5. Clc1ccc(SCCCCCCCCCCSc2ccc(Cl)cc2)cc1
6. NC(CCSC(F)F)C(=O)O (configuration not stated)
7. C=CCCCCCC(O)C(O)C/C=C\C/C=C\CC (configuration not stated)

["> 100 µM", "> 100 µM", "> 100 µM", "> 100 µM", "> 100 µM", "> 100 µM", "> 18.8 µM"]

For each of the compounds below, note its TGI.
1. CCCCCCCCCCCC[n+]1ccc(C(N)=O)cc1
2. CN(C)c1ccc(N=Nc2cccc3ncccc23)cc1
3. COc1ccc2nc(C)cc(Nc3ccccc3O)c2c1
4. Cc1nn(C(=O)Cc2ccccc2)c2c1C(c1ccccc1[N+](=O)[O-])SC(N)=N2 (configuration not stated)

1: 3.5 µM; 2: > 100 µM; 3: > 100 µM; 4: > 100 µM

For each of the compounds below, note its TGI.
1. OC(CNC1CCCC1)Cn1c2ccccc2c2ccccc21 (configuration not stated)
2. CC[N+]1(C)CCC(O)(/C=C/c2ccc(Cl)cc2)C(C(=O)/C=C/c2ccc(Cl)cc2)C1 (configuration not stated)
3. CN1CCN(CCCCN2c3ccccc3Sc3ccc(N=[N+]=[N-])cc32)CC1

["> 100 µM", "> 22.4 µM", "23.3 µM"]

For each of the compounds below, note its TGI.
1. C/C(=N\O)C(CN1CCCCC1)C(c1ccccc1)c1c(O)c2ccccc2oc1=O (configuration not stated)
2. O=C(CC(C(=O)c1cccs1)c1ccsc1)c1ccco1 (configuration not stated)
3. Fc1ccc(Nc2nnc(-c3ccccn3)s2)cc1

["> 100 µM", "> 100 µM", "> 100 µM"]
